# study_system: Orexin type 1 (OX1R) receptor (Homo sapiens, UniProt O43613)
# Construct: expressed in transfected cells; host or cells: CHO cells (G418 selection)
# Sequence (O43613 1-425): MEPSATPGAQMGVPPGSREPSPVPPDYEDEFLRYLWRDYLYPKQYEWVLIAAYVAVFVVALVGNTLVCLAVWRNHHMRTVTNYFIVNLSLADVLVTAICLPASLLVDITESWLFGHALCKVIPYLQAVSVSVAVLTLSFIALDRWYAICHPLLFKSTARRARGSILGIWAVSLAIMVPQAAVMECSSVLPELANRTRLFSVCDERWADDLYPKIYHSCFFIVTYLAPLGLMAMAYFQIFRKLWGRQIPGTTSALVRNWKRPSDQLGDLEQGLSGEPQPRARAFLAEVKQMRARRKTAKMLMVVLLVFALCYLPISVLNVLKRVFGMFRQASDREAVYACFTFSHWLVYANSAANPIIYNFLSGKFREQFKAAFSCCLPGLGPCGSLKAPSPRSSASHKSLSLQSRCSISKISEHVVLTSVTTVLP
# method: In vitro orexin antagonism assay: intracellular calcium measurement (FLIPR), orexin-A 3 nM as agonist
# Type: cell-based
# run_parameters: read-out: OX1R, % Inh. @ 1 uM
reported_property: inhibition at 1 µM (%)

{"smi": "O=C(c1c(-c2ncccn2)nn2ccccc12)N1[C@@H]2CC[C@@H](C2)[C@H]1COc1ccc(C(F)(F)F)cn1", "units_label": "%", "inhibition at 1 µM": 90}
{"smi": "O=C(c1c(-c2ccccc2)nn2cccnc12)N1CCC[C@H]1Cn1ccc(-c2ccccn2)n1", "units_label": "%", "inhibition at 1 µM": 100}
{"smi": "O=C(c1c(-c2ccccc2)nc2ccc(F)cn12)N1CCC[C@H]1Cn1ccc(-c2ccc(F)cc2)n1", "units_label": "%", "inhibition at 1 µM": 102}
{"smi": "O=C(c1c(-c2ccccc2)nc2cc(F)ccn12)N1CCC[C@H]1Cn1ccc(-c2ccc(F)cc2)n1", "units_label": "%", "inhibition at 1 µM": 99}

[1] O=C(c1c(-c2ncccn2)nn2ccccc12)N1CCC[C@H]1COc1ccc(C(F)(F)F)cn1
[2] O=C(c1c(-c2ccccc2)nn2c1COCC2)N1CCC[C@H]1Cn1cc(-c2ccccn2)cn1
[3] O=C(c1c(-c2ccccc2F)nn2c1COCC2)N1CCC[C@H]1Cn1cc(-c2ccccn2)cn1
Query string: # desc sort on inhibition at 1 µM across 3 compounds Answer format: the labels, ordered as requested.
Result string: 1, 2, 3
(1: 100%, 2: 22%, 3: 14%)
